Tested on: HT-29
Assay: Concentration required to kill 50 % of human colon cancer cell line HT-29
Assay type: functional, cell-based
Details: ht-29
property.measured: IC50 (uM l-1)

INSERT INTO measurements (compound, readout_unit, relation, test_result) VALUES
  ('CC(=O)OC[C@@]12CC[C@]3(C)C(CCC4[C@@]5(C)CC[C@H](OC(=O)CCl)C(C)(C)C5CC[C@]43C)C1=C(C(C)C)C(=O)OC2=O (stereo not given in full)', 'uM l-1', '=', 216),
  ('C=C(C)[C@@H]1CC[C@]2(CO)CC[C@]3(C)[C@H](CC[C@@H]4[C@@]5(C)CC[C@H](O)C(C)(C)[C@@H]5CC[C@]43C)[C@@H]12', 'uM l-1', '>', 250),
  ('CC(C)C1=C2C3CCC4[C@@]5(C)CC[C@H](O)C(C)(C)C5CC[C@@]4(C)[C@]3(C)CC[C@@]2(CO)CC1=O (stereo not given in full)', 'uM l-1', '>', 250),
  ('CC(=O)O[C@H]1CC[C@@]2(C)C(CC[C@]3(C)C2CCC2C4=C(C(C)C)C(=O)C[C@]4(C(=O)OCc4ccccc4)CC[C@]23C)C1(C)C (stereo not given in full)', 'uM l-1', '=', 250),
  ('CC(=O)O[C@H]1CC[C@@]2(C)C(CC[C@]3(C)C2CCC2C4=C(C(C)C)C(=O)C[C@]4(C(=O)O)CC[C@]23C)C1(C)C (stereo not given in full)', 'uM l-1', '=', 149);
